Tested on: c-Src;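 also: 11-residue human phosphosite peptides and single-mutation variants displayed on the E. coli surface, counted by deep sequencing, each peptide's frequency after selection divided by its frequency in the unselected input library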;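 also: frequency after pTyr selection over input frequency; kinase dosed for 20-30% of maximal phosphorylation in three min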
Experiment: phosphorylation enrichment, bacterial display (enrichment ratio); higher = better substrate or ligand; peptides without Tyr show the background
MEASURED PARAMETER: phosphorylation enrichment

SEQUENCE ENTRY: FIGCIYLYLTK [GARS1_Y414_R412C]
DATA VALUE: 0.704
//
SEQUENCE ENTRY: SHSMKYFDTAV [HLA-C_Y31_R30K]
DATA VALUE: 0.395
//
SEQUENCE ENTRY: SSQAHYRLSAF [ADAMTS9_Y100]
DATA VALUE: 0.41
//
SEQUENCE ENTRY: GGSDCYGSLRP [MYLK_Y846_R845C]
DATA VALUE: 2.75
//
SEQUENCE ENTRY: VGGRIYIDDGL [PKLR_Y218]
DATA VALUE: 0.493
//
SEQUENCE ENTRY: HKLSFNEFDFE [BTK_Y40_Y40N_YF]
DATA VALUE: 0.864
//
SEQUENCE ENTRY: GIVEDYRPPLY [ACVRL1_Y421_F425L]
DATA VALUE: 0.412
//
SEQUENCE ENTRY: CSSGGYEPRGR [FUS_Y239_R234C]
DATA VALUE: 0.353
//
SEQUENCE ENTRY: TVEDHYFEGGI [TKT_Y563_YF]
DATA VALUE: 0.472
//
SEQUENCE ENTRY: FETDFYQKGGK [INSR_Y1190_R1191Q_YF]
DATA VALUE: 0.427
//
SEQUENCE ENTRY: LQLLGYRPVYS [CHST6_Y358]
DATA VALUE: 0.559
//
SEQUENCE ENTRY: GIYEDYVEGLR [MYL6_Y89_T85I]
DATA VALUE: 4.26
//
SEQUENCE ENTRY: RKLASYRSCLL [DHX37_Y1080]
DATA VALUE: 0.486
//
SEQUENCE ENTRY: ELAVNYQEQAS [SLC9A9_Y591_I589V]
DATA VALUE: 0.496
//
SEQUENCE ENTRY: RHPYFYAPELL [ALB_Y174]
DATA VALUE: 0.776
//
SEQUENCE ENTRY: LPEENYQVLRF [ARHGAP1_Y365]
DATA VALUE: 1.32
//
SEQUENCE ENTRY: VHNLDYFKMTT [FGFR3_Y647_K650M_YF]
DATA VALUE: 0.397
//
SEQUENCE ENTRY: CSDPSYVKQME [CDC5L_Y464_Y459C]
DATA VALUE: 0.488
//
SEQUENCE ENTRY: QRAADYFSQQM [GBP6_Y333_YF]
DATA VALUE: 0.687
//
SEQUENCE ENTRY: DLDPNYVVSSR [CKM_Y125_L127V]
DATA VALUE: 0.46
//
SEQUENCE ENTRY: GRRNTYFASIA [ACADM_Y352_YF]
DATA VALUE: 0.615
//
SEQUENCE ENTRY: CKRQFYLFKGK [RSPO4_Y112_YF]
DATA VALUE: 0.377
//
SEQUENCE ENTRY: EGELRYMHSRV [ABCD1_Y281_K276E]
DATA VALUE: 0.373
//
SEQUENCE ENTRY: TVHCDYLNIPH [TAF1L_Y1385]
DATA VALUE: 0.718
//
SEQUENCE ENTRY: GVRFTYTIDGS [DCX_Y105_I104T_YF]
DATA VALUE: 0.435
//
SEQUENCE ENTRY: PNRILYGDFWQ [MYH6_Y717_R721W]
DATA VALUE: 4.24
//
SEQUENCE ENTRY: RSGNCYLDIRP [FBN1_Y1535]
DATA VALUE: 0.583
//
SEQUENCE ENTRY: KVDKECEVRVR [GHR_Y226_Y226C]
DATA VALUE: 0.446
//
SEQUENCE ENTRY: LNWIFYKDQTG [RS1_Y166_YF]
DATA VALUE: 0.567
//
SEQUENCE ENTRY: TDECEYDELIV [TGM1_Y136_Y134C]
DATA VALUE: 0.529
//
SEQUENCE ENTRY: DGYIDYAEFAK [MCFD2_Y138]
DATA VALUE: 0.912
//
SEQUENCE ENTRY: SMEGLYSSTQD [CLIC5_Y111]
DATA VALUE: 3.13
//
SEQUENCE ENTRY: RLEKEYFDQHF [NPC1_Y394]
DATA VALUE: 0.571
//
SEQUENCE ENTRY: ERDFTYDELLN [EIF2S2_Y176_E177D_YF]
DATA VALUE: 0.796
//
SEQUENCE ENTRY: GSESDYIVMPN [SCARB1_Y133]
DATA VALUE: 0.63
//
SEQUENCE ENTRY: IGSHAYGDQYR [IDH1_Y135_R132S]
DATA VALUE: 0.43
//
SEQUENCE ENTRY: VTRDEYPSNPM [CEMIP2_Y1015_I1010V]
DATA VALUE: 0.394
